- SYSTEM_UNDER_TEST: T1, PUF4 RNA-binding domain (Saccharomyces cerevisiae, UniProt P25339 537-888)
- T1 sequence: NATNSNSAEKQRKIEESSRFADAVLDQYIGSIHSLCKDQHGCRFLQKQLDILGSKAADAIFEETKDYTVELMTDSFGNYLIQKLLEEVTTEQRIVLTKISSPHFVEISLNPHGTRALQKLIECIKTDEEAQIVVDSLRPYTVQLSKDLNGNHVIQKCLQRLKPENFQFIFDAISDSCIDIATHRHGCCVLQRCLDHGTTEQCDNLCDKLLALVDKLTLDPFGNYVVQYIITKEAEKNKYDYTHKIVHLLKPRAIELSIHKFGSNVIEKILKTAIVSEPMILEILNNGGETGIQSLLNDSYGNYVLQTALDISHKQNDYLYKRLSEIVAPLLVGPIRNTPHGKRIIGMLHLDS
- TEST: Mg; RNA-MaP; 20 mM Na-HEPES pH 7.4, 30 mM KOAc, 0.75 mM MgCl2, 0.1% Tween-20, 5% glycerol, 0.1 mg/mL BSA, 2 mM DTT; 25 C; 0.0125-409.6 nM protein
- MEASUREMENT_CONTEXT: tags: N-His6-TEV cleaved; C-SNAP kept, Cy3B-labelled; label: tethered on chip by stalled RNA polymerase
Kd listing for selected binders.

Measured Kd of UCUCUUCGACACUUAUUACUUCUCUU (ssRNA) [Id_ii_S1_P5E.4_K5.3_C5.2_[T-1G]_H5.3_A5.1_F5.1_T5.2_[T11C]_[A12T]] : > 2300 nM

Measured Kd of UCUCUUUUACACUAUUAUCUCUCUU (ssRNA) [Id_ii_S1_P4E.4_K4.3_C4.2_[C-2T]_H4.3_A4.1_F4.1_T4.2_[G10T]_[T11C]] : 1280 nM

Measured Kd of UCUCUUUGUAACUAUCUCUCUU (ssRNA) [Ic_S1_P5E.1_K5.1_C5.1_H5.1_A5.1_[T5A]_[T6C]_[A7T]_F5.1_[T8A]_[A10C]_T5.1] : 113 nM

Measured Kd of Ic_S2_P4E.1_K4.1_C4.1_H4.1_A4.1_[T5C]_[A6T]_[T7G]_F4.1_[T8G]_[A9T]_T4.1 (ssRNA) RNA: UUUGAUUAAUAUGAUAUCGUUCUUUCUUGUACUGGUUUCUUUCUCGAUAUCAUAUUAAUCUUU : 966 nM

Measured Kd of Id_ii_S4_P3E.2_K3.1_C3.2_[C-2T]_H3.1_A3.1_F3.1_T3.2_[A10T] (ssRNA) RNA: UUUGACAACUGAUCGUUCUUUCUUUUGUAUAUAUUUUCUUUCUCGAUCAGUUGUCUUU : 1.75 nM

Measured Kd of Ic_S4_P4E.1_K4.1_C4.1_H4.1_A4.1_[T5C]_[A6T]_[T7C]_F4.1_[T8C]_[A9C]_T4.1 (ssRNA) RNA: UUUGACAACUGAUCGUUCUUUCUUGUACUCCCUUCUUUCUCGAUCAGUUGUCUUU : 394 nM

Measured Kd of UCUCUUUGUACCUAAUCUCUU (ssRNA) [Ic_S1_P4E.1_K4.1_C4.1_H4.1_A4.1_[T5C]_[A6C]_F4.1_[T8A]_T4.1] : 66.3 nM

Shift focus to the following entry.
Measured Kd of UCUCUUGUUGUAUAUUAUGUCUCUU (ssRNA) [Id_ii_S1_P4E.2_K4.1_C4.2_[C-2G]_H4.1_A4.1_F4.1_T4.2_[G10T]_[T11G]] : 1.07 nM
